assay_system: Mannose-6-phosphate isomerase (Homo sapiens) (UniProt P34949)
Sequence (P34949 whole entry, looked up): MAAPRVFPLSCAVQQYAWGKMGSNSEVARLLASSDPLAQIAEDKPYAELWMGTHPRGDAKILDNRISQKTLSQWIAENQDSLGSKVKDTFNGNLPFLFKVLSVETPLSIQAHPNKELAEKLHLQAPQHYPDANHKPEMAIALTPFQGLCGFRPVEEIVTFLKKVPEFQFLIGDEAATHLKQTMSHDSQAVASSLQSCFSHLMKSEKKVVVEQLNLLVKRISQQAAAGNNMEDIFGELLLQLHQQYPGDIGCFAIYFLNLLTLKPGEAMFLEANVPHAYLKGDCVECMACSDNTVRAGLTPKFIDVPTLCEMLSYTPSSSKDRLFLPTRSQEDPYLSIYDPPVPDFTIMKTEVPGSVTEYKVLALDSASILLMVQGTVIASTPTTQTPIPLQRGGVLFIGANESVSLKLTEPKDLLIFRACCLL
experiment_description: MPI inhibition at elevated mannose 6-phosphate – biochemical, fluorescence intensity, high mannose 6-phosphate, primary screen (AID 1220)
condition_description: recombinant PMI enzyme, coupled fluorescence intensity; at 20 µM; stronger effect = higher value
The whole screen tested about 190,000 compounds, of which about 1,300 (0.68%) were called active. The sample as a whole holds a higher share of actives than the screen did.
endpoint_name: inhibition (%)

* CCOc1cc(N2CCOCC2)c(OCC)cc1NC(=O)c1ccc(C)cc1 | 27.3
* COc1cc([N+](=O)[O-])cc2cc(C(=O)NC(C)(C)C)c(=O)oc12 | 15.7
* COc1ccc(C2=NOC(C(=O)NC3CCCCC3)C2)cc1OC (centres undefined) | 11.9
* CCCCn1c2nc3ccccc3nc2c2c(=N)oc(C)nc21 | 30.1
* COc1ccc(CNC(=O)C(c2ccncc2)N(C(=O)Cc2cccs2)c2ccccc2)cc1 (centres undefined) | 1.9
* COc1cc(CN2CCN(C(=O)CC(C)C)CC2)cc(OC)c1OC | -4.9
* COc1ccc(CN2CCN(C(=O)c3cc(OC)c(OC)c(OC)c3)CC2)cc1OC | -8.2
* COC(=O)c1c(NC(=O)CN2C(=O)c3ccccc3C2=O)sc(Cc2ccc3c(c2)OCO3)c1C | 1.6
* CCOc1cc(N2CCOCC2)c(OCC)cc1NC(=O)c1ccco1 | 25.1
* COc1ccccc1-n1cnnc1SCC(=O)N1CCN(S(=O)(=O)c2ccccc2)CC1 | 4.9
* O=C(OCC(=O)N1CCCCC1)c1ccccc1SCC(=O)N1CCCCC1 | -4
* CCC(=O)Nc1cc2c(C)cc(=O)oc2cc1C | -14.2
* CCOC(=O)C(C#N)C(Cc1ccccc1)c1ccco1 (centres undefined) | 5.7
* CCOc1cc(N2CCOCC2)c(OCC)cc1NC(=O)c1ccc(NC(C)=O)cc1 | 26.1
* CCOC(=O)c1c(NC(=O)CN2C(=O)c3ccccc3C2=O)sc(Cc2ccc3c(c2)OCO3)c1C | 51.5
* CCCCOc1ccc(Br)cc1CSC(=N)N | -4.3
* CC(C)CN1C(=O)c2ccc(NC(=O)c3ccco3)cc2C1=O | 6.2
* CCN(Cc1ccccc1)S(=O)(=O)c1cc(C(=O)c2c(N)n(C)c(=O)n(C)c2=O)ccc1OC | 0.7
* Cc1[nH]nc2ncc(C(=O)c3cc(F)ccc3O)cc12 | -5.1
* Cc1cccc(-c2nnc(SCC#N)n2Cc2ccccc2)c1 | -0.8
* O=C(O/N=C\c1ccc(N2CCOCC2)c([N+](=O)[O-])c1)c1ccc(F)cc1 | 8
* COC(=O)CP(=O)(c1ccccc1)c1ccccc1 | -5.8
* CCNC(=S)Nc1cc(OCC)c(N2CCOCC2)cc1OCC | 58
* Oc1ccc(N2CCN(Cc3ccc(OCCCN4CCCCC4)cc3)CC2)cc1 | 58.4
* O=S(=O)(Cc1ccccc1)NCC1CCCN(Cc2ccc3nonc3c2)C1 (centres undefined) | 7.4
* CCOc1ccc(N2C(=O)/C(=C/c3ccc(C)o3)N(C)C2=S)cc1 | 43.2
* Cc1cc(NC(=O)c2ccco2)ncc1NC(=O)CCc1ccccc1 | 34.9
* Cc1ccccc1-c1nc(CN(Cc2c(C)nn(C)c2C)C2CC2)c(C)o1 | 5.6
* COc1cccc(C2=NOC(C(=O)NC3CCCCC3)C2)c1 (centres undefined) | 53.2
* O=S(=O)(Nc1ccc(N2CCOCC2)cc1)c1ccc(Cl)s1 | -4.9
* CCC(=O)Nc1cc2[nH]c(=O)cc(C)c2cc1C | 54.6
* O=C(NCC(=O)N(c1cccnc1)C(C(=O)NC1CCCC1)c1ccccc1)c1ccco1 (centres undefined) | -14.2
* COC(=O)c1cc(C(=O)OC)cc(-n2c(C)cc(C(=O)COC(=O)CNS(=O)(=O)c3ccc(C)cc3)c2C)c1 | 6.4
* CCOc1cc(N2CCOCC2)c(OCC)cc1NC(=O)c1nc2nc(C)cc(C)n2n1 | 14.6
* CCOc1cc(N2CCOCC2)c(OCC)cc1NC1=NCCCCC1 | 50.1
* Cc1nc2n(n1)C(O)c1cc([N+](=O)[O-])ccc1S2 (centres undefined) | 7.3
* CCOc1cc(N2CCOCC2)c(OCC)cc1NC(=O)c1ccccc1 | 28.4
* COc1ccc(C(=O)N2CCN(Cc3ccccc3C)CC2)cc1OC | -3.6
* COC(=O)C1CCN(Cc2ccc(OCCCN3CCN(c4ccc([N+](=O)[O-])cc4)CC3)cc2)CC1 | 14
* CS(=O)(=O)N1CCC(Oc2ccccc2C(=O)NC(C2CC2)C2CC2)CC1 | 2.8
* COc1cc(CN2CCN(C(=O)CC(C)C)CC2)cc(OC)c1O | 55.5
* CCCCOc1ccc(CN2CCCCC2)cc1 | 14.9
* CCOc1ccc(Br)cc1S(=O)(=O)Nc1ccccc1N1CCOCC1 | -0.7
* CCCCC(CC)Cn1c2nc3ccccc3nc2c2c(=N)oc(C)nc21 (centres undefined) | -4.2
